src = paper PMC6160999

test: Tissue distribution after single oral PU-48 SNEDDS; assay type: in vivo; conditions: kidney; 1 h, rat, oral PU-48 SNEDDS 12 mg/kg; read-out: Concentration of PU-48 in kidney
readout_label: concentration at 1 h (ng/g)

structure_notation: COC(=O)c1sc2nc3ccc(OC)cc3cc2c1N
measured_value: 297

----------
assay: Tissue distribution after single oral PU-48 SNEDDS; type: in vivo; conditions: fat; 0.5 h, rat, oral PU-48 SNEDDS 12 mg/kg; read-out: Concentration of PU-48 in fat
readout_label: concentration at 0.5 h (ng/g)

compound: COC(=O)c1sc2nc3ccc(OC)cc3cc2c1N [PU-48]
readout_label: concentration at 0.5 h
measured_value: 481

----------
assay: Tissue distribution after single oral PU-48 SNEDDS; type: in vivo; conditions: male, testicle; 24 h, rat, oral PU-48 SNEDDS 12 mg/kg; read-out: Concentration of PU-48 in testicle

structure_notation: COC(=O)c1sc2nc3ccc(OC)cc3cc2c1N
concentration at 24 h [ng/g]: 1.4

----------
experiment: Tissue distribution after single oral PU-48 SNEDDS; assay type: in vivo; settings: fat; 6 h, rat, oral PU-48 SNEDDS 12 mg/kg; read-out: Concentration of PU-48 in fat
readout_label: concentration at 6 h (ng/g)

structure_notation: COC(=O)c1sc2nc3ccc(OC)cc3cc2c1N
result_units: ng/g
measured_value: 52.3

----------
test: Tissue distribution after single oral PU-48 SNEDDS; assay type: in vivo; details: bladder; 24 h, rat, oral PU-48 SNEDDS 12 mg/kg; read-out: Concentration of PU-48 in bladder

structure_notation: COC(=O)c1sc2nc3ccc(OC)cc3cc2c1N
concentration at 24 h (ng/g): 8.6

----------
experiment: Tissue distribution after single oral PU-48 SNEDDS; format: in vivo; details: colon; 0.5 h, rat, oral PU-48 SNEDDS 12 mg/kg; read-out: Concentration of PU-48 in colon

structure_notation: COC(=O)c1sc2nc3ccc(OC)cc3cc2c1N
result_units: ng/g
concentration at 0.5 h: 90.4

----------
Test: Plasma pharmacokinetics after single oral PU-48 SNEDDS
Type: in vivo, rat
Conditions: rat plasma, oral PU-48 SNEDDS 12 mg/kg, n=6
Experimental: The method for quantification PU-48 in rat samples (plasma, thirteen tissues, urine and bile) has been developed and validated in our preliminary experiment. Briefly, PU-48 was quantitative analyzed by the liquid chromatography-electrospray ionization source-triple quadrupole tandem mass spectrometer (LC-MS/MS) system, which consisted of the Shimazdu LC-20AD pumpers (Shimadzu, Kyoto, Japan), a 20 μL loop and a SPD-M20A PDA detector. […]

structure_notation: COC(=O)c1sc2nc3ccc(OC)cc3cc2c1N
Cmax [ng/mL]: 94.3

----------
Test: Tissue distribution after single oral PU-48 SNEDDS
Type: in vivo
Details: muscle; 0.5 h, rat, oral PU-48 SNEDDS 12 mg/kg; read-out: Concentration of PU-48 in muscle
Procedure: Internal standard (IS, 25 μL) was added to 50 μL plasma, urine, or bile sample in a clean tube, placed into a water bath at 37 °C, and dried under a gentle stream of nitrogen gas, followed by the addition of 0.5 mL of ethyl acetate for liquid-liquid extraction. The mixture was shaken by a vortex mixer for 3 min, and then centrifuged at 8000 rpm (4200× g) for 10 min at 4 °C. After centrifugation, the upper organic phase was transferred into a clean centrifuge tube and then dried it again. […]

compound: COC(=O)c1sc2nc3ccc(OC)cc3cc2c1N [PU-48]
concentration at 0.5 h: 39.8 ng/g

----------
assay: Plasma pharmacokinetics after single oral PU-48 SNEDDS; format: in vivo, rat; conditions: rat, plasma, po, 3 mg/kg, rat plasma, oral PU-48 SNEDDS 3 mg/kg, n=6

structure_notation: COC(=O)c1sc2nc3ccc(OC)cc3cc2c1N
half-life / h: 7.1

----------
assay: Tissue distribution after single oral PU-48 SNEDDS; format: in vivo; conditions: colon; 12 h, rat, oral PU-48 SNEDDS 12 mg/kg; read-out: Concentration of PU-48 in colon

structure_notation: COC(=O)c1sc2nc3ccc(OC)cc3cc2c1N
concentration at 12 h [ng/g]: 28.6

----------
assay: Tissue distribution after single oral PU-48 SNEDDS; assay type: in vivo; settings: brain; 6 h, rat, oral PU-48 SNEDDS 12 mg/kg; read-out: Concentration of PU-48 in brain

molecule: COC(=O)c1sc2nc3ccc(OC)cc3cc2c1N [PU-48]
concentration at 6 h: 15.7 ng/g

----------
assay: Tissue distribution after single oral PU-48 SNEDDS; format: in vivo; settings: muscle; 1 h, rat, oral PU-48 SNEDDS 12 mg/kg; read-out: Concentration of PU-48 in muscle
readout_label: concentration at 1 h (ng/g)

structure_notation: COC(=O)c1sc2nc3ccc(OC)cc3cc2c1N
readout_label: concentration at 1 h
measured_value: 52

----------
assay: Plasma pharmacokinetics after single oral PU-48 SNEDDS; type: in vivo, rat; settings: plasma; 1 h, rat, oral PU-48 SNEDDS 3 mg/kg
readout_label: concentration at 1 h

compound: COC(=O)c1sc2nc3ccc(OC)cc3cc2c1N [PU-48]
readout_label: concentration at 1 h
measured_value: 11.8 ng/mL

----------
experiment: Plasma pharmacokinetics after single oral PU-48 SNEDDS; type: in vivo, rat; conditions: rat plasma, oral PU-48 SNEDDS 12 mg/kg, n=6

structure_notation: COC(=O)c1sc2nc3ccc(OC)cc3cc2c1N
result_units: ng·h/mL
AUC(0-t): 179

----------
assay: Tissue distribution after single oral PU-48 SNEDDS; type: in vivo; settings: spleen; 12 h, rat, oral PU-48 SNEDDS 12 mg/kg; read-out: Concentration of PU-48 in spleen

structure_notation: COC(=O)c1sc2nc3ccc(OC)cc3cc2c1N
result_units: ng/g
concentration at 12 h: 3.8

----------
experiment: Tissue distribution after single oral PU-48 SNEDDS; assay type: in vivo; conditions: tissues except liver and colon; 24 h, rat, oral PU-48 SNEDDS 12 mg/kg; read-out: Concentrations of PU-48 in tissues except liver and colon

compound: COC(=O)c1sc2nc3ccc(OC)cc3cc2c1N [PU-48]
concentration at 24 h: < 10 ng/g

----------
assay: Tissue distribution after single oral PU-48 SNEDDS; assay type: in vivo; details: bladder; 6 h, rat, oral PU-48 SNEDDS 12 mg/kg; read-out: Concentration of PU-48 in bladder

structure_notation: COC(=O)c1sc2nc3ccc(OC)cc3cc2c1N
result_units: ng/g
concentration at 6 h: 43.4

----------
test: Plasma pharmacokinetics after single oral PU-48 SNEDDS; assay type: in vivo, rat; conditions: plasma; 2 h, rat, oral PU-48 SNEDDS 3 mg/kg
readout_label: concentration at 2 h (ng/mL)

compound: COC(=O)c1sc2nc3ccc(OC)cc3cc2c1N [PU-48]
result_units: ng/mL
measured_value: 13.8

----------
assay: Tissue distribution after single oral PU-48 SNEDDS; assay type: in vivo; details: fat; 12 h, rat, oral PU-48 SNEDDS 12 mg/kg; read-out: Concentration of PU-48 in fat

structure_notation: COC(=O)c1sc2nc3ccc(OC)cc3cc2c1N
concentration at 12 h / ng/g: 2.7

----------
experiment: Tissue distribution after single oral PU-48 SNEDDS; format: in vivo; details: stomach; 12 h, rat, oral PU-48 SNEDDS 12 mg/kg; read-out: Concentration of PU-48 in stomach

structure_notation: COC(=O)c1sc2nc3ccc(OC)cc3cc2c1N
result_units: ng/g
concentration at 12 h: 104
